We begin with a simple list: items and their reported GI50.
- System: ACHN
- protocol details: NCI tumour cell line growth inhibition, 48 h
Active and inactive are the calls of the source. Rule as the data show it: active = GI50 up to about 1.1 µM and inactive = higher.
measured endpoint: GI50

- compound: "C[C@H](CCc1nc(C#N)c(N)o1)[C@H]1CC[C@H]2[C@@H]3[C@@H](O)CC4C[C@@H](O)CC[C@]4(C)[C@H]3C[C@@H](O)[C@]12C (stereo not given in full)"
  recorded measurement: "26.4 µM (inactive)"
- compound: "Nc1nc(-c2cccs2)cs1"
  recorded measurement: "98.6 µM (inactive)"
- compound: "CCC(=O)NI1OC(=O)c2ccccc21"
  recorded measurement: "> 100 µM (inactive)"
- compound: "O=CCCCCCOCc1ccccc1"
  recorded measurement: "36.9 µM (inactive)"
- compound: "COC(O)C(=O)c1c2c(cc3c1CCC3)CCC2 (stereo not given)"
  recorded measurement: "> 100 µM (inactive)"

---

- System: M19-MEL
- protocol details: NCI tumour cell line growth inhibition, 48 h
Active and inactive are the calls of the source. No stated cut-off is given here; in the data, active = GI50 up to about 1.1 µM and inactive = higher.
We begin with a simple list: items and their reported GI50.

- compound: "CCC1c2cc3n(c(=O)c2COC1O)Cc1c-3nc2ccccc2c1Cl (centres undefined)"
  GI50: "69.3 µM (inactive)"
- compound: "COC(=O)C1=C(C(=O)OC)SC(=CC#CC=C2SC(C(=O)OC)=C(C(=O)OC)S2)S1"
  GI50: "40.5 µM (inactive)"
- compound: "CCC1=CC2CN3Cn4c(c(COCc5c6n(c7ccccc57)CN5CC7C=C(CC)C5C6(C(=O)OC)C7)c5ccccc54)C(C(=O)OC)(C2)C13"
  GI50: "47.2 µM (inactive)"
- compound: "O=c1c2cc(Br)ccc2n(C2OC(CO)C(O)C(O)C2O)c(=S)n1-c1ccccc1 (centres undefined)"
  GI50: "> 100 µM (inactive)"

---

We begin with a simple list: items and their reported GI50.
- Test system: UACC-257
- protocol details: NCI tumour cell line growth inhibition, 48 h
Calls of active or inactive are those of the source. Rule as the data show it: active = GI50 up to about 1.1 µM and inactive = higher.
measured endpoint: GI50

- molecule: "CN(C(=O)C12C3(C(=O)O)C4C5(C(=O)O)C3C1(C(=O)O)C5C42C(=O)O)C(C)(C)C (centres undefined)"
  measured endpoint: "GI50"
  recorded measurement: "> 100 µM (inactive)"
- molecule: "O=C1CCCCCCCCCCC1CCCCCBr (centres undefined)"
  measured endpoint: "GI50"
  recorded measurement: "21.3 µM (inactive)"
- molecule: "Cc1cn2c(C)csc2c1P(=O)(OC(C)C)OC(C)C"
  measured endpoint: "GI50"
  recorded measurement: "> 100 µM (inactive)"
- molecule: "CO[C@H](C(=O)O[C@H]1C(=O)N2CC[C@@H]3CCC[C@H]1C32C)c1ccccc1 (some centres undefined)"
  measured endpoint: "GI50"
  recorded measurement: "> 100 µM (inactive)"

---

- Test system: MCF7
- protocol details: NCI tumour cell line growth inhibition, 48 h
Calls of active or inactive are those of the source. Cut-off read from the data, not from the text of the source: active = GI50 up to about 1.1 µM and inactive = higher.
Labels: active, inactive

- compound: "N#CC(C#N)=Cc1c(O)ccc2ccccc12"
  subject of test: "MCF7"
  class: "inactive"
- compound: "C/C(=C/CC[C@](C)(OC1OC(CO)C(O)C(O)C1OC1OC(C)C(O)C(O)C1O)[C@H]1CC[C@]2(C)[C@@H]1CC[C@@H]1[C@@]3(C)CC[C@H](O)C(C)(C)[C@@H]3C[C@H](O)[C@]12C)CO (some centres undefined)"
  subject of test: "MCF7"
  class: "inactive"
- compound: "N#C/C(=C\\Nc1ccccn1)C(=O)C1CC1"
  subject of test: "MCF7"
  class: "inactive"
- compound: "COc1cc(Cn2c(=S)ss/c2=N\\C(=S)N(C)C)cc(OC)c1OC"
  subject of test: "MCF7"
  class: "inactive"
- compound: "c1ccc2sc(SCCSc3nc4ccccc4s3)nc2c1"
  subject of test: "MCF7"
  class: "inactive"
- compound: "Cn1c(CO)ccc1-c1ccc(-c2ccc[se]2)[se]1"
  subject of test: "MCF7"
  class: "active"
- compound: "N#CC1(C#N)C2(c3ccccc3)OC(c3ccccc3)(c3cc4ccccc4cc32)C1(C#N)C#N"
  subject of test: "MCF7"
  class: "inactive"
- compound: "COc1ccc(/C=C/C(=O)Oc2cc(O)cc(O)c2)cc1"
  subject of test: "MCF7"
  class: "inactive"
- compound: "C[C@H]1C=C2[C@@H]3CC(C)(C(=O)O)CC[C@]3(C)CC[C@]2(C)[C@]2(C)CC[C@H]3C(C)(C)[C@@H](OC(=O)c4cccc5c(=O)c6ccccc6[nH]c45)CC[C@]3(C)[C@@H]12 (some centres undefined)"
  subject of test: "MCF7"
  class: "inactive"
